meta.source: patent US20200024330A1

EC50 listing for selected binders.
Target: JR-FL gp120 ΔV1/ΔV2 (HIV-1 (isolate JR-FL))
Experiment: ELISA on coated gp120; EC50 by nonlinear regression
Entry rule: numbers only, all in mg/L.

>  <Binder>
PGT-136 (antibody, V domains shown) VH: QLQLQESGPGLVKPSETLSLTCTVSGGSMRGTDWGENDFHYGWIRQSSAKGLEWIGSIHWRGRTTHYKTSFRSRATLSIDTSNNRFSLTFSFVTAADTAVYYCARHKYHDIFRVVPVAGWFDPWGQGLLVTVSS VL: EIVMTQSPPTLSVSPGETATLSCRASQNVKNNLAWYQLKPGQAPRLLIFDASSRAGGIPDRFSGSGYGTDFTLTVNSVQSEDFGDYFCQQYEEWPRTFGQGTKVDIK

>  <EC50 / mg/L>
0.3

$$$$

Continue with the binder presented below.
Data request: Provide one value: measured EC50 of PGT-123 (antibody, V domains shown) VH: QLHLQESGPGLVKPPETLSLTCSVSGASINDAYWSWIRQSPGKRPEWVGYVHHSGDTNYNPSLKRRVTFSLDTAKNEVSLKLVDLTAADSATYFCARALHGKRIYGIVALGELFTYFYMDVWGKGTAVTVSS VL: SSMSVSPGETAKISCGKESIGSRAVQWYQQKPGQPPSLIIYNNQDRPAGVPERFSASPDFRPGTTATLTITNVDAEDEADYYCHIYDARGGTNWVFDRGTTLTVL
Data returned: 0.3
